subject-of-test: E. coli SPase (Escherichia coli, UniProt P00803)
Sequence (P00803 whole entry): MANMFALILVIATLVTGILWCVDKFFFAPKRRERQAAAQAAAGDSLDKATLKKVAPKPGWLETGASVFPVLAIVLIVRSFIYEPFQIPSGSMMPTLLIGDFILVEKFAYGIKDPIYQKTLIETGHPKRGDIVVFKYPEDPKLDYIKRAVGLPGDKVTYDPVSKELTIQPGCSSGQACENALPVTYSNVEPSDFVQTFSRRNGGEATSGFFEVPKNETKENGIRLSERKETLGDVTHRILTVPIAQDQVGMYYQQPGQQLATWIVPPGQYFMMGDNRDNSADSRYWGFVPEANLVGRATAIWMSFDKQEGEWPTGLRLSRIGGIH
assay-text: Biochemical SPase activity assay (fluorogenic peptide substrate), E. coli enzyme
Square brackets hold non-standard residues; d marks the D form. Peptide text beside a SMILES is read from it. * marks the point of attachment. ξ: configuration not given here. boroAla((+)-pinanediol) = C[C@H](N*)B1O[C@@H]2C[C@@H]3C[C@@H](C3(C)C)[C@]2(C)O1; Biphenylcarbonyl(4'-Bu) = CCCCc1ccc(-c2ccc(C(=O)*)cc2)cc1; X11 = CC[C@H](N*)B1OC2C[C@@H]3C[C@@H](C3(C)C)[C@]2(C)O1; X1 = C[C@H](N*)B1OC2C[C@@H]3C[C@@H](C3(C)C)[C@]2(C)O1; Benzoyl(4-(4-Cl-Ph)) = O=C(c1ccc(-c2ccc(Cl)cc2)cc1)*; X5 = C[C@H](N*)B1OC2C3CCC(C3(C)C)C2(C)O1; X4 = CCCCc1ccc(-c2c[nH]c(C(=O)*)c2)cc1; NMeThr(3ξ) = CN[C@H](C(=O)O)C(C)O; Myristoyl = CCCCCCCCCCCCCC(=O)*; Thr(3ξ) = CC(O)[C@H](N)C(=O)O; NMeK = CN[C@@H](CCCCN)C(=O)O; Decanoyl = CCCCCCCCCC(=O)*; Dab = NCC[C@H](N)C(=O)O; Abu = CC[C@H](N)C(=O)O; Dap = NC[C@H](N)C(=O)O; ξOrn = NCCCC(N)C(=O)O; boroGly = OB(O)CN*; βAla = NCCC(=O)O; ξA = CC(N)C(=O)O
property: IC50 (µM)
Answer format: numeric, µM implied, no suffix.

In the examples that follow, each entry is paired with its recorded IC50.
CCCCc1ccc(-c2ccc(C(=O)NCCCC[C@H](NC(=O)[C@H](CCN)NC(C)=O)C(=O)N[C@@H](C)C(=O)N[C@@H](CCCCN)C(=O)N[C@@H](C)B3OC4C[C@@H]5C[C@@H](C5(C)C)[C@]4(C)O3)cc2)cc1 (stereo partly drawn) [Compound 279] (Ac-[Dab]K(Biphenylcarbonyl(4'-Bu))AK-X1); 0.53
CCCCc1ccc(-c2ccc(C(=O)NCCC(=O)N[C@@H](CCCCN)C(=O)N[C@H](C(=O)N[C@@H](CC)C(=O)N[C@@H](CC(N)=O)C(=O)N[C@@H](CC)B3OC4C[C@@H]5C[C@@H](C5(C)C)[C@]4(C)O3)[C@@H](C)O)cc2)cc1 (stereo partly drawn) [Compound 205] ({Biphenylcarbonyl(4'-Bu)-βAla}-KT[Abu]N-X11); 0.21
CCCCc1ccc(-c2c[nH]c(C(=O)N[C@@H](CCN)C(=O)N[C@H](C(=O)N[C@@H](C)C(=O)N[C@@H](CCCCN)C(=O)N[C@@H](C)B3O[C@@H]4C[C@@H]5C[C@@H](C5(C)C)[C@]4(C)O3)[C@@H](C)O)c2)cc1 [Compound 247] (X4-[Dab]TAK-{boroAla((+)-pinanediol)}); 0.017
CCCCc1ccc(-c2ccc(C(=O)N[C@@H](CN)C(=O)N[C@H](C(=O)N[C@@H](C)C(=O)N[C@@H](CCCCN)C(=O)N[C@@H](C)B3O[C@@H]4C[C@@H]5C[C@@H](C5(C)C)[C@]4(C)O3)[C@@H](C)O)cc2)cc1 [Compound 149] ({Biphenylcarbonyl(4'-Bu)}-[Dap]TAK-{boroAla((+)-pinanediol)}); 0.0039
CCCCc1ccc(-c2ccc(C(=O)N[C@@H](CCCCN)C(=O)N[C@@H](CCCCN)C(=O)N[C@@H](C)C(=O)N[C@@H](CC(C)C)C(=O)N[C@@H](C)B3OC4C[C@@H]5C[C@@H](C5(C)C)[C@]4(C)O3)cc2)cc1 (stereo partly drawn) [Compound 146] ({Biphenylcarbonyl(4'-Bu)}-KKAL-X1); 0.012
CCCCCCCCCCCCCC(=O)N[C@@H](CC(C)C)C(=O)N[C@H](C(=O)N1CCC[C@@H]1C(=O)N[C@H](C(=O)N[C@@H](C)C(=O)N[C@@H](CC(N)=O)C(=O)NC(C)C=O)C(C)O)C(C)O (stereo partly drawn) [Compound 108] (Myristoyl-L[Thr(3ξ)][dP][Thr(3ξ)]AN[ξA]-aldehyde); 20
CCCCCCCCCCCCCC(=O)N[C@H](CO)C(=O)N[C@H](C)C(=O)NCC(=O)N(C)[C@H](C(=O)N[C@@H](C)C(=O)N[C@@H](CC(C)C)C(=O)N[C@@H](C)B1OC2C3CCC(C3(C)C)C2(C)O1)C(C)O (stereo partly drawn) [Compound 123] (Myristoyl-[dS][dA]G[NMeThr(3ξ)]AL-X5); 0.22
CCCCc1ccc(-c2ccc(C(=O)N[C@@H](CCN)C(=O)N[C@@H](CCN)C(=O)N[C@@H](C)C(=O)N[C@@H](CO)C(=O)N[C@@H](C)B3O[C@@H]4C[C@@H]5C[C@@H](C5(C)C)[C@]4(C)O3)cc2)cc1 [Compound 185] ({Biphenylcarbonyl(4'-Bu)}-[Dab][Dab]AS-{boroAla((+)-pinanediol)}); 0.041
CCCCCCCCCC(=O)N[C@@H](CC(C)C)C(=O)N[C@H](C(=O)N1CCC[C@@H]1C(=O)N[C@H](C(=O)N[C@@H](C)C(=O)N[C@@H](Cc1ccc(O)cc1)C(=O)NCB(O)O)C(C)O)C(C)O (stereo partly drawn) [Compound 128] (Decanoyl-L[Thr(3ξ)][dP][Thr(3ξ)]AY-boroGly); 3
CCCCc1ccc(-c2ccc(C(=O)N[C@H](CO)C(=O)N[C@H](C)C(=O)NCC(=O)N(C)[C@@H](CCCCN)C(=O)N[C@@H](C)C(=O)N[C@@H](CC(N)=O)C(=O)N[C@@H](C)B3OC4C[C@@H]5C[C@@H](C5(C)C)[C@]4(C)O3)cc2)cc1 (stereo partly drawn) [Compound 228] ({Biphenylcarbonyl(4'-Bu)}-[dS][dA]G[NMeK]AN-X1); 0.36

Notebook entry, E. coli SPase (Escherichia coli, UniProt P00803) assay: IC50 of CCCCc1ccc(-c2ccc(C(=O)NCCC(=O)N[C@@H](CCCCN)C(=O)NC(CCCN)C(=O)N[C@@H](C)C(=O)N[C@@H](CC(C)C)C(=O)N[C@@H](C)B3OC4C[C@@H]5C[C@@H](C5(C)C)[C@]4(C)O3)cc2)cc1 (stereo partly drawn) [Compound 217] ({Biphenylcarbonyl(4'-Bu)-βAla}-K[ξOrn]AL-X1) = ?
0.015

Notebook entry, E. coli SPase (Escherichia coli, UniProt P00803) assay: IC50 of CCCCc1ccc(-c2ccc(CNCCC[C@H](NC(C)=O)C(=O)N[C@H](C(=O)N[C@@H](C)C(=O)N[C@@H](CCCCN)C(=O)N[C@@H](C)B3OC4C[C@@H]5C[C@@H](C5(C)C)[C@]4(C)O3)[C@@H](C)O)cc2)cc1 (stereo partly drawn) = ?
1.5

Notebook entry, E. coli SPase (Escherichia coli, UniProt P00803) assay: IC50 of CCCCCCCCCC(=O)NCCC(=O)N[C@@H](CCCCN)C(=O)N[C@H](C(=O)N[C@@H](C)C(=O)N[C@@H](CC(N)=O)C(=O)N[C@@H](C)B1OC2C[C@@H]3C[C@@H](C3(C)C)[C@]2(C)O1)[C@@H](C)O (stereo partly drawn) [Compound 199] ({Decanoyl-βAla}-KTAN-X1) = ?
0.0045

Notebook entry, E. coli SPase (Escherichia coli, UniProt P00803) assay: IC50 of CCCCc1ccc(-c2ccc(C(=O)N[C@@H](Cc3c[nH]c4ccccc34)C(=O)N[C@H](C(=O)N[C@@H](C)C(=O)N[C@@H](CCCCN)C(=O)N[C@@H](C)B3OC4C[C@@H]5C[C@@H](C5(C)C)[C@]4(C)O3)[C@@H](C)O)cc2)cc1 (stereo partly drawn) [Compound 138] ({Biphenylcarbonyl(4'-Bu)}-WTAK-X1) = ?
1

Notebook entry, E. coli SPase (Escherichia coli, UniProt P00803) assay: IC50 of CC(C)C[C@H](NC(=O)[C@H](C)NC(=O)[C@H](CCN)NC(=O)[C@H](CCN)NC(=O)c1ccc(-c2ccc(Cl)cc2)cc1)C(=O)N[C@@H](C)B1OC2C[C@@H]3C[C@@H](C3(C)C)[C@]2(C)O1 (stereo partly drawn) [Compound 173] ({Benzoyl(4-(4-Cl-Ph))}-[Dab][Dab]AL-X1) = ?
0.069

This collection of values is drawn from patent US9708368B2.
